tested on: Streptococcus pneumoniae; assay: Antibacterial activity against constitutive macrolide-lincosamide-streptogramin B-resistant Streptococcus pneumoniae B0627 by agar microdilution method; assay type: functional
READOUT_KIND: MIC (mg/L)
Give a bare numeral; the unit mg/L is implied.

q: Provide MIC value for the following compound: CC[C@H]1OC(=O)[C@H](C)C(=O)[C@H](C)[C@@H](O[C@@H]2O[C@H](C)C[C@H](N(C)C)[C@H]2O)[C@](C)(OCC(O)CN[C@H](C)Cc2ccccc2)C[C@@H](C)NC(=O)[C@H](C)[C@H](O)[C@@]1(C)O (some centres not stated)
a: 2

====

test system: Streptococcus pneumoniae; assay: Antibacterial activity against constitutive macrolide-lincosamide-streptogramin B-resistant Streptococcus pneumoniae B0627 by agar microdilution method; type: functional
Listed next: entries and their corresponding MIC.
// note: answer is a bare numeric in mg/L

[[record]]
molecule = "CC[C@H]1OC(=O)[C@H](C)C(=O)[C@H](C)[C@@H](O[C@@H]2O[C@H](C)C[C@H](N(C)C)[C@H]2O)[C@](C)(OCC(O)CNCCNc2ccc3c(c2F)c(=O)c(C(=O)O)cn3C2CC2)C[C@@H](C)NC(=O)[C@H](C)[C@H](O)[C@@]1(C)O (some centres undefined)"
readout_kind = "MIC"
numeric_result = 2


Now, please, on to the next molecule.
q: Supply MIC value. Item: CC[C@H]1OC(=O)[C@H](C)C(=O)[C@H](C)[C@@H](O[C@H]2C[C@H](O)[C@@H](N(C)C)[C@@H](C)O2)[C@](C)(OC/C=C/c2cnc3ccccc3c2)C[C@@H](C)/C(=N\OC(C)=O)[C@H](C)[C@@H](O)[C@]1(C)O
a: 8

====

MIC overview
tested on: Streptococcus pyogenes; test: Antibacterial activity against efflux-resistant Streptococcus pyogenes B0545 by agar microdilution method; assay type: functional
Numbers only here, please. The scale is µg/mL.

[[record]]
compound = "CC[C@H]1OC(=O)[C@H](C)C(=O)[C@H](C)[C@@H](O[C@@H]2O[C@H](C)C[C@H](N(C)C)[C@H]2O)[C@](C)(OC/C=C/c2cnc3ccccc3c2)C[C@@H](C)NC(=O)[C@H](C)[C@@H]2OC(=O)O[C@]12C"
readout_kind = "MIC"
numeric_result = 0.5


q: Entry CC[C@H]1OC(=O)[C@H](C)C(=O)[C@H](C)[C@@H](O[C@@H]2O[C@H](C)C[C@H](N(C)C)[C@H]2O)[C@](C)(OCC(O)CN2CCN(c3cc4c(=O)c(C(=O)O)cn(C5CC5)c4cc3Cl)CC2)C[C@@H](C)NC(=O)[C@H](C)[C@H](O)[C@@]1(C)O (some centres undefined) needs its MIC filled in; supply it.
a: 0.5

====

test system: Streptococcus pneumoniae; test: Antibacterial activity against constitutive macrolide-lincosamide-streptogramin B-resistant Streptococcus pneumoniae B0627 by agar microdilution method; format: functional
READOUT_KIND: log10 of MIC (log10 of the value in µg/mL)
Plainly stated, the numbers are log10 of MIC given in µg/mL.

For orientation, consider the following solved cases.
[[record]]
compound = "CC[C@H]1OC(=O)[C@H](C)C(=O)[C@H](C)[C@@H](O[C@@H]2O[C@H](C)C[C@H](N(C)C)[C@H]2O)[C@](C)(OCC(O)CNC2CN(S(=O)(=O)c3ccc4ccncc4c3)CCN2)C[C@@H](C)NC(=O)[C@H](C)[C@H](O)[C@@]1(C)O (stereo partly specified)"
numeric_result = 1.51

[[record]]
compound = "CC[C@H]1OC(=O)[C@H](C)C(=O)[C@H](C)[C@@H](O[C@H]2C[C@H](O)[C@@H](N(C)C)[C@@H](C)O2)[C@](C)(OC/C=C/c2cnc3ccccc3c2)C[C@@H](C)/C(=N\\O)[C@H](C)[C@@H](O)[C@]1(C)O"
numeric_result = 0.60


q: Give recorded log10 of MIC. CC[C@H]1OC(=O)[C@H](C)C(=O)[C@H](C)[C@@H](O[C@@H]2O[C@H](C)C[C@H](N(C)C)[C@H]2O)[C@](C)(OC[C@H](O)CN2CCN(c3ccc4c(c3F)c(=O)c(C(=O)O)cn4C3CC3)CC2)C[C@@H](C)NC(=O)[C@H](C)[C@H](O)[C@@]1(C)O
a: -0.30

q: Provide only the value of recorded log10 of MIC for CC[C@H]1OC(=O)[C@H](C)C(=O)[C@H](C)[C@@H](O[C@@H]2O[C@H](C)C[C@H](N(C)C)[C@H]2O)[C@](C)(OCC(O)CNc2ccc3ncccc3c2)C[C@@H](C)NC(=O)[C@H](C)[C@H](O)[C@@]1(C)O (stereo partly specified)
a: 0.90

q: # return recorded log10 of MIC for entry CC[C@H]1OC(=O)[C@H](C)C(=O)[C@H](C)[C@@H](O[C@@H]2O[C@H](C)C[C@H](N(C)C)[C@H]2O)[C@](C)(OCC(O)CN2CCN(c3ccc4c(c3)c(=O)c(C(=O)O)cn4C3CC3)CC2)C[C@@H](C)NC(=O)[C@H](C)[C@H](O)[C@@]1(C)O (stereo partly specified)
a: 0.00

q: Fill in log10 of MIC for record O=C(O)c1cn(C2CC2)c2cc(N3CCNCC3)c(F)cc2c1=O
a: -0.60

q: Note log10 of MIC for the compound shown: CC[C@H]1OC(=O)[C@H](C)C(=O)[C@H](C)[C@@H](O[C@@H]2O[C@H](C)C[C@H](N(C)C)[C@H]2O)[C@](C)(OC/C=C/c2cnc3ccccc3c2)C[C@@H](C)C(=O)N[C@H](C)[C@H](O)[C@@]1(C)OC/C=C/c1cnc2ccccc2c1
a: 0.60

q: Write down log10 of MIC measured for item CC[C@H]1OC(=O)[C@H](C)C(=O)[C@H](C)[C@@H](O[C@@H]2O[C@H](C)C[C@H](N(C)C)[C@H]2O)[C@](C)(OCC(O)CN2CCN(c3cc4c(=O)c(C(=O)O)cn(C5CC5)c4cc3Cl)CC2)C[C@@H](C)NC(=O)[C@H](C)[C@H](O)[C@@]1(C)O (stereo partly specified)
a: 0.00

q: Annotate the compound CC[C@H]1OC(=O)[C@H](C)C(=O)[C@H](C)[C@@H](O[C@@H]2O[C@H](C)C[C@H](N(C)C)[C@H]2O)[C@](C)(OCC(O)CNCCNc2cc3c(=O)c(C(=O)O)cn(C4CC4)c3cc2Cl)C[C@@H](C)NC(=O)[C@H](C)[C@H](O)[C@@]1(C)O (stereo partly specified) with its measured log10 of MIC.
a: 0.60

====

system: Staphylococcus aureus; test: Antibacterial activity against inducible macrolide-lincosamide-streptogramin B-resistant Staphylococcus aureus B0538 by agar microdilution method; assay type: functional
Labelling: MIC reported below 0.5 mg/L becomes true (1); at or above becomes false (0).

Take a look at these entries with their results.
[[record]]
compound = "CC[C@H]1OC(=O)[C@H](C)[C@@H](O[C@@H]2C[C@@](C)(OC)[C@@H](O)[C@H](C)O2)[C@H](C)[C@@H](O[C@@H]2O[C@H](C)C[C@H](N(C)C)[C@H]2O)[C@](C)(OC/C=C/NCCc2ccc([N+](=O)[O-])cc2)C[C@@H](C)NC(=O)[C@H](C)[C@H](O)[C@@]1(C)O"
target_or_test_system = "Staphylococcus aureus"
class_assignment = "false (0)"

[[record]]
compound = "C=CCO[C@]1(C)C[C@@H](C)C(=O)N[C@H](C)[C@H](O)[C@@](C)(O)[C@@H](CC)OC(=O)[C@H](C)C(=O)[C@H](C)[C@H]1O[C@@H]1O[C@H](C)C[C@H](N(C)C)[C@H]1O"
target_or_test_system = "Staphylococcus aureus"
class_assignment = "false (0)"

[[record]]
compound = "CC[C@H]1OC(=O)[C@H](C)C(=O)[C@H](C)[C@@H](O[C@@H]2O[C@H](C)C[C@H](N(C)C)[C@H]2O)[C@](C)(OCC=Cc2cnc3ccccc3c2)C[C@@H](C)C(=O)[C@H](C)[C@H]2NC(=O)O[C@@]21C"
target_or_test_system = "Staphylococcus aureus"
class_assignment = "true (1)"


q: Criterion: MIC strictly below 0.5 mg/L. Is it met by CC[C@H]1OC(=O)[C@H](C)C(=O)[C@H](C)[C@@H](O[C@@H]2O[C@H](C)C[C@H](N(C)C)[C@H]2O)[C@](C)(OCC(O)CNc2ccc3ncccc3c2)C[C@@H](C)NC(=O)[C@H](C)[C@H](O)[C@@]1(C)O (some centres not stated) ?
a: false (0)

====

system: Streptococcus pneumoniae; assay: Antibacterial activity against constitutive macrolide-lincosamide-streptogramin B-resistant Streptococcus pneumoniae B0627 by agar microdilution method; type: functional
// MIC lookup, one value per entry

In the examples that follow, each entry is paired with its recorded MIC.
[[record]]
compound = "C=CCO[C@]1(C)C[C@@H](C)NC(=O)[C@H](C)[C@H](O)[C@@](C)(O)[C@@H](CC)OC(=O)[C@H](C)[C@@H](O[C@@H]2C[C@@](C)(OC)[C@@H](O)[C@H](C)O2)[C@H](C)[C@H]1O[C@@H]1O[C@H](C)C[C@H](N(C)C)[C@H]1O"
target_or_test_system = "Streptococcus pneumoniae"
readout_kind = "MIC"
result = "> 64 µg/mL"

[[record]]
compound = "CC[C@H]1OC(=O)[C@H](C)[C@@H](O[C@@H]2C[C@@](C)(OC)[C@@H](O)[C@H](C)O2)[C@H](C)[C@@H](O[C@@H]2O[C@H](C)C[C@H](N(C)C)[C@H]2O)[C@](C)(OC/C=C/NCCc2ccc([N+](=O)[O-])cc2)C[C@@H](C)NC(=O)[C@H](C)[C@H](O)[C@@]1(C)O"
target_or_test_system = "Streptococcus pneumoniae"
readout_kind = "MIC"
result = "32 µg/mL"


Now examine the next entry.
q: Annotate the compound CC[C@H]1OC(=O)[C@H](C)C(=O)[C@H](C)[C@@H](O[C@@H]2O[C@H](C)C[C@H](N(C)C)[C@H]2O)[C@](C)(OCC(O)CN2CCN(c3ccc4c(c3F)c(=O)c(C(=O)OC)cn4C3CC3)CC2)C[C@@H](C)NC(=O)[C@H](C)[C@H](O)[C@@]1(C)O (stereo partly drawn) with its measured MIC.
a: > 64 µg/mL
